assay: self-splicing fitness, log relative to wild type (ln ratio); higher = more splicing; Tetrahymena group I intron in knt gene, E. coli kanamycin selection, DiMSum; sequences stand for … in CUCUCU…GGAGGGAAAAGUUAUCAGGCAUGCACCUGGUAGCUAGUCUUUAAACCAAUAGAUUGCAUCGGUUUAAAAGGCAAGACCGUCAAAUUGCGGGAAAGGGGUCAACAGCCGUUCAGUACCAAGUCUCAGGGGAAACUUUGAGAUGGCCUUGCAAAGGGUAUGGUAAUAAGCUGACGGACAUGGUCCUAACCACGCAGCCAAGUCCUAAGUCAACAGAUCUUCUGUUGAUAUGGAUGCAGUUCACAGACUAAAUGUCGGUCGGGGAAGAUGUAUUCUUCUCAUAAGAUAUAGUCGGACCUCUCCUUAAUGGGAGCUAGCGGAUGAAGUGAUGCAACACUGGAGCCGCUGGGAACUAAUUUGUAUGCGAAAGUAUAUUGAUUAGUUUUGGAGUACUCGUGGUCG; details: 37 °C;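 further: selection with 25 µg/mL kanamycin versus none on LB agar overnight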
Could you label it Criterion met if measured self-splicing fitness (ln) is -1 or higher, and Criterion not met otherwise?

In [3]: df
Out[3]:
             seq_string              class
0  CCCUAGCAAUAUUACGUUUA  Criterion not met
1  AUGUAGCAAUAUUACGCAUG      Criterion met
2  ACGAAGCAAUAUUACGCUCG  Criterion not met
3  ACUGAGCAAUAUUACGGCAU      Criterion met
4  UGAUAGCAAUAUUACGCAAU  Criterion not met
5  GCUGAGCAAUAUUACGGAUC      Criterion met
6  CGUCAGCAAUAUUACGGGUA  Criterion not met
7  GCAGAGCAAUAUUACGGCCU  Criterion not met

Task: self-splicing fitness (ln) >= -1 for `ACACAGCAAUAUUACGGGUC` ?
Output: Criterion not met

Task: Please do the same for `AGGUAGCAAUAUUACGAGCG` as well.
Output: Criterion met

Task: Then `ACUUAGCAAUAUUACGGUAC` ?
Output: Criterion not met
